protocol.text: folding stability dG unfold from chymotrypsin proteolysis; higher = more stable
Can you tell me folding stability dG unfold for the items I'm about to list?
Numeric answer only, unit kcal/mol assumed.

[ask] Need folding stability dG unfold of SAGGSMPPDTEIAVIRVEVRPPDGSTLPLLFTVPLEKVEEVAKEIAERLREKGYEVKVELAAVFPVSAGGSA [r2_274_TrMRF] , thanks.
[reply] 2.18

[ask] Entry SAGGDKNAKPIKPITISFTLEDGSKKTITATFYKDAVIVEITYINPKTGKPFTKTFVFKKKGVKLLLSAGGS [r16_419_TrMRF] : reported folding stability dG unfold = ?
[reply] 3.19

[ask] What folding stability dG unfold value was documented for this sequence, SAGGSAGGSAGGPPGAVERGYLVVRFRVYRPEPAEPVGELTVYVRVPPPEPEEDGSFRFHSAGGSAGGSAGG [r7_959_TrMRF] ?
[reply] 2.39

[ask] What does the record list as folding stability dG unfold for SAGGSAGGSAEPPPLVVVTEVRTITVEIDLDDLSEEEREALENLDTVTITVTRVVVVPREDLSAGGSAGGSA [r18_127_TrROS_Hall] ?
[reply] 1.39

[ask] GET /values?readout=folding stability dG unfold&item= SAGGMPIKELTAEEIAALLKEKLGVDVEIEEVKVTVERDENGNYVLRIEVKFKETNETITLEIVLPKSAGGS [r16_42_TrROS_Hall]
[reply] 4.2

###

protocol.text: folding stability dG unfold (combined trypsin and chymotrypsin); higher = more stable
Classification field: enter true for folding stability dG unfold values not below 1 kcal/mol, false for values below it.

[ask] Please tell me: is the sequence SAGGSAGGSAVAEEFKKKFPDKTVTVEAFTFERTVTHPDGGSSTERVTVLNVTVSSSDDPGSAGGSAGGSAG [r3_358_TrMRF] at or over 1 kcal/mol in terms of folding stability dG unfold?
[reply] true

[ask] Hi team, for SAGGSAGGSAGMVTETTVSRLPDGTVTTTTTEYVVHPDGSLEPVRERTTTTPVPPDVPAASAGGSAGGSAGG [r11_440_JUSTAS] , is the recorded folding stability dG unfold at or above 1 kcal/mol?
[reply] false

[ask] # bool: folding stability dG unfold of SSMTTTEKKYTYNDSSISVSTTTLPDGSKLITTPITRKNPDGIDVTETLTTLDKGSGVTPVSPSTSTLNTSA [r9_554_JUSTAS] >= 1 kcal/mol
[reply] false

[ask] Could you tell me if the measured folding stability dG unfold of SAGGSAGGLKEALKLAEELGAKPHVVKTKGNSEIVFLELKDGRKIRLLVENGKIKEIIPIPETPSAGGSAGG [r6_548_TrMRF] reaches 1 kcal/mol or more?
[reply] true

[ask] Given SAGGSAGGSAGFYKAKLKILKTKVYSNEKGTKKKTYKPVLILEELIPPKIPKELWEKLNKSAGGSAGGSAGG [r11_318_TrMRF] , state whether its folding stability dG unfold is at least 1 kcal/mol.
[reply] false

[ask] Has SAGGSAGGSMTLVLEVDSVEDALAAVEALLPPGYRVTIEVEERGGRLLVTITIEPAPAPPPEESAGGSAGGS [r12_195_TrROS_Hall] a recorded folding stability dG unfold greater than or equal to 1 kcal/mol?
[reply] true

[ask] Could you please find out whether SAGGSAGGSAGGAPPPPVKVKVVEIEEEGGERRIRVENEDTGEVVELRVPKGAEVLEELSAGGSAGGSAGGS [r10_1038_TrROS_Hall] has folding stability dG unfold that meets 1 kcal/mol or exceeds it?
[reply] true

[ask] Given SAGGSAGGSDDDENQKENQKAKPIKLEPIVEITVPYPDGFSLTVPIWRWPDGGIGIELEIFPLGSAGGSAGG [r6_326_TrROS] , state whether its folding stability dG unfold is at least 1 kcal/mol.
[reply] true

[ask] Is folding stability dG unfold at least 1 kcal/mol? Consider SAGGSAGGSAGGSSFTIKVELKDENGNKYTITVTGTGSAETVKKELEKKYPNKIVKITGSAGGSAGGSAGGS [r4_412_TrMRF]
[reply] true

[ask] Is the recorded value of folding stability dG unfold equal to or greater than 1 kcal/mol for this sequence? SAMVVTYDPATGKITVNVTLYVEEPLTPEERAALAAAIKAALAAAHPDVDVTVTLHPAPSPEEVEKLAASAG [r14_406_JUSTAS]
[reply] true

[ask] Does the reported folding stability dG unfold for SAGGSAMSLEELKKKKVKVKVKEIEVPKGAKIPDGKTVKEGEKILVVDGKVYLPNGKLIAEVEVEESAGGSA [r15_12_TrROS_Hall] fall at or above the 1 kcal/mol mark?
[reply] false

[ask] Identify whether the reported folding stability dG unfold of the following sequence is 1 kcal/mol or greater: SAGGNIKIQVENHEDGWYMKIWVPGNGKEQEYPFEPGDTIDTLPPGAEPVKIEWFHMNDNPQEFELDSAGGS [r8_487_TrROS]
[reply] false

[ask] Kindly determine if folding stability dG unfold recorded for SAGGSAGGSAGEPIPFRIKVELPGNGREQEIDFPIKTPSEANEIANQLPPGFKRVKIEWYSAGGSAGGSAGG [r11_25_TrROS] is above or exactly 1 kcal/mol.
[reply] false

[ask] Entry SAGGSAGGSAMKIKIEVVKNKNGYYYLKVEIEVNGKKIEITIKVPKNEKVSIEELLKKILKKSAGGSAGGSA [r18_111_TrROS_Hall] : is its folding stability dG unfold no less than 1 kcal/mol?
[reply] true

[ask] # check: folding stability dG unfold of SAGWQTIDFPIPPGEDIPIPIGNRPLRIQVDPNKNKYEIFNPFLGYRISIDVDPGAGWIKITIEPLKPPSAG [r5_302_TrROS] is greater than or equal to 1 kcal/mol
[reply] true

[ask] Please check the record SAGGSAGGSASLIVISPPGAPRTIPLEGLVEKGIPEREAAELLEKELGIEINLSEPGVIRAKSAGGSAGGSA [r18_7_JUSTAS] and state if its folding stability dG unfold is at or above 1 kcal/mol.
[reply] false

[ask] Say whether SAGGSAGGPLVLRIETPEDKVLVLVLPEEAEKLPPKELAEIAAKEFAALPGVKEVKVEIAPLPLSAGGSAGG [r6_710_TrMRF] shows folding stability dG unfold of 1 kcal/mol or more.
[reply] true

[ask] Textbook exercise: given the entry SAGGSAGGSAGGMKIPPSLLTEVKESIVPTPEGSTKITTVTAKVPGTGEVVTYTLTTPVASAGGSAGGSAGG [r7_348_JUSTAS] , state whether its folding stability dG unfold is greater than or equal to 1 kcal/mol.
[reply] false

###

protocol.text: folding stability dG unfold (combined trypsin and chymotrypsin); higher = more stable
# if value of folding stability dG unfold reaches 2 kcal/mol, tag y; if it stays below, tag n

[ask] # check: folding stability dG unfold of SAGMVVKFVSPSKKYVAVVYFSPDGKYRTALLYDASGELVSVIPSSVPVEELLEAFPDATVEVYPLDPPSAG [r5_314_TrMRF] is greater than or equal to 2 kcal/mol
[reply] y

[ask] Answer whether folding stability dG unfold of SEFPESVPVDWVERELTFSSSSKEELEKKIKELLKNIEIEVSYDPKTNKYTLKIKFPSKEKAEKVEELLSSA [r9_764_JUSTAS] is greater than or equal to 2 kcal/mol.
[reply] y

[ask] Threshold query (folding stability dG unfold >= 2 kcal/mol) on SAGGSAGGSAGGPSPSTPVTVTVTFPETGETVTLEVTDLEELRERFPDRPVEITVSPGGSAGGSAGGSAGGS [r10_1004_JUSTAS]
[reply] y

[ask] Textbook exercise: given the entry SAGGSAGGSAGGPPVLAESTFSFPDGVTVRLAFLPDGKAIAELTPPDGSKIEVEFDVDASAGGSAGGSAGGS [r10_1184_TrMRF] , state whether its folding stability dG unfold is greater than or equal to 2 kcal/mol.
[reply] n

[ask] Check the entry SAGGSAMTAEELKGMKVKITLKNGKKIEAKIKKVEVINGEIYIEIDGKKIKLKKNEKYKIEIVEKKSAGGSA [r15_355_TrROS_Hall] : does folding stability dG unfold equal or exceed 2 kcal/mol?
[reply] y

[ask] Has SAGGSGMKLEKEIEVEVDPSGVGAEAVKEAVRAELEKEGYKVKVEIEVSEEEEKLYVKLHVEIYELSAGGSA [r2_172_JUSTAS] a recorded folding stability dG unfold greater than or equal to 2 kcal/mol?
[reply] n

[ask] Check the entry SAGGSAGGSAGGPDVTTSDSVSLERLPDDTIVLRRTTTVTPPTGPPVVTSTTTVLPPSTLSAGGSAGGSAGG [r17_312_JUSTAS] : does folding stability dG unfold equal or exceed 2 kcal/mol?
[reply] n

[ask] Check this sequence for folding stability dG unfold at or above 2 kcal/mol: SAGGSAGGSAGSMLTTTLPNGTPVTREFDIQDVEPKGDVIKVVITNPTGGEVPASTVIGPVNSAGGSAGGSA [r18_163_JUSTAS]
[reply] n

[ask] For this sequence, is measured folding stability dG unfold 2 kcal/mol or higher? SAGGSAGGSAGGPERELTVPITTPDGSGKSISAELGEEELEKLIEENPEWKEAIIEARRESAGGSAGGSAGG [r7_637_JUSTAS]
[reply] n

[ask] Does folding stability dG unfold meet or surpass 2 kcal/mol for SAGGFLEAIKNGKPVIFHVLVKHPGSGEVEEYPILVHPDKPIDLEKLIKELFPEDFEAEIFVSDFGFSAGGS [r8_127_TrMRF] ?
[reply] n

[ask] Please indicate if the recorded folding stability dG unfold for SAGGSTTVTIETYESEKFPNGSFKTSTKKIVITNTLSPDEELTLPNGKKIPASLSAEEIAEAILKSESAGGS [r16_440_JUSTAS] meets or exceeds 2 kcal/mol.
[reply] n

[ask] folding stability dG unfold >= 2 kcal/mol for SAGGSAGGSAGLVKLKDKNGKLITLEVKEVEVVEVKEVTLKPKPKPKKTLKLSEEELKKLSAGGSAGGSAGG [r17_484_TrROS_Hall] ?
[reply] n

[ask] Check if folding stability dG unfold >= 2 kcal/mol (inclusive). Item: SAGGSAGGSAMTPDETRTVVVEEELPNGEPVVRVTDVRTLPDGSLETLGERVITREELEERSAGGSAGGSAG [r3_212_JUSTAS]
[reply] n

[ask] Given the entry SAGMNLSPEEIAERIREEAKKKYPNSEVEVRIVSQPPTTIVLEVKITIYFPEEGGSIIEEPRVITIDRLSAG [r14_187_JUSTAS] , answer whether its folding stability dG unfold meets or surpasses 2 kcal/mol.
[reply] y

[ask] Would you say SAGMTPEDLKNGKPVKVPIPIPIRDPDGKPWAEIPIKGPMPVKDIMEVIETIREIARELKIPPSDGDKNSAG [r5_606_TrROS] shows folding stability dG unfold at minimum 2 kcal/mol?
[reply] n

[ask] folding stability dG unfold >= 2 kcal/mol for SAGGIKIERDPNMWKFEIPLPNKPLTIHISQSDGRYTIAIYENGKPIRTVPFPGPVDDAIERALKKLSAGGS [r8_276_TrROS] ?
[reply] n

[ask] Reported folding stability dG unfold reaches at least 2 kcal/mol for SKIRIEVPGETIEITVPPGATVEFDEETGEITITLPDGSKRTIRLPPNAKIEVVDGEIRITIRLPPPPEPSA [r9_653_TrROS_Hall] ?
[reply] y

[ask] Threshold query (folding stability dG unfold >= 2 kcal/mol) on SAGGGMESRTLTLPKEEIEKVKEEIKKASNLDIKVTTKKLPNGEYELTITFSNPEDVEKFEKKLGIESAGGS [r16_172_JUSTAS]
[reply] y
